Below, each entry is listed alongside its reported MIC.
Test system: Escherichia coli
Experiment: Antibacterial activity against Escherichia coli DH5alpha with deltaampC by agar dilution method
Type: functional

{"smi": "CCN1CCN(C(=O)N[C@@H](C(=O)N[C@@H]2C(=O)N3C(C(=O)O)=C(CSc4nnnn4C)CS[C@H]23)c2ccc(O)cc2)C(=O)C1=O", "test system": "Escherichia coli", "MIC": "≤ 0.25 µg/mL"}
{"smi": "COc1cc(Cc2cnc(N)nc2N)cc(OC)c1OC", "test system": "Escherichia coli", "MIC": "≤ 0.125 µg/mL"}
{"smi": "O=C(O)c1cn(C2CC2)c2cc(N3CCNCC3)c(F)cc2c1=O", "test system": "Escherichia coli", "MIC": "≤ 0.125 µg/mL"}

Hey, just so you know, these numbers are from ChEMBL document CHEMBL1255335.
